- testedTarget: UBE3A (Homo sapiens, UniProt Q05086)
- Sequence (Q05086 24-875 limits assumed): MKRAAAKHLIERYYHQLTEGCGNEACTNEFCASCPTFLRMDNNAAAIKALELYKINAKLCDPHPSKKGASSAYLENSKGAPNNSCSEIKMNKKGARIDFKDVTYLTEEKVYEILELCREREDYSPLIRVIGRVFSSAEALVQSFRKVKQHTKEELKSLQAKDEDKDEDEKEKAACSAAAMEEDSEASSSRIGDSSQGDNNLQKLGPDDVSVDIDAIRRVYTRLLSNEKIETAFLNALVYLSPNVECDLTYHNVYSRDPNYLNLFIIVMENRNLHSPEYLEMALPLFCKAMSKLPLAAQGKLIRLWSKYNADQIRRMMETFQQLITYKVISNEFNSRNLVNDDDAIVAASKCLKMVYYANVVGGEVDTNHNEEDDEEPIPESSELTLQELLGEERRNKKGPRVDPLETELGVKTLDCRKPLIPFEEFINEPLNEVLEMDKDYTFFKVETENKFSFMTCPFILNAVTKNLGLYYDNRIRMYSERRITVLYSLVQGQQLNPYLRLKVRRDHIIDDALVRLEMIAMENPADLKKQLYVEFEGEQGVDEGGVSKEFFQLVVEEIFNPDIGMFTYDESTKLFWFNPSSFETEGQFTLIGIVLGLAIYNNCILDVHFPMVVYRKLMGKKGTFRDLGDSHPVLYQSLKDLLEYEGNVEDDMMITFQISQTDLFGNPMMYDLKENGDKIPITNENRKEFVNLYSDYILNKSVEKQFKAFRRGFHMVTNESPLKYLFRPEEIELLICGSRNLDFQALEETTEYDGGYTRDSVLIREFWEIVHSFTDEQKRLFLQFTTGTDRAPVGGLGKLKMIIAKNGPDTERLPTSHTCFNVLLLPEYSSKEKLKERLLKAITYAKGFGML
pIC50: −log10 of the molar value.
property: pIC50

Incoming: Recorded pIC50 for COc1ccc(CNCC2CCOCC2)c(OCC(O)CN2CCN(C)CC2)c1 (stereo not shown) , please?
Outgoing: ~4.00
